Hey, just so you know, these numbers are from paper PMC5858870.

APPLIED CONDITIONS: day 50, medium dose
Please assign f whenever WB conc. factor (lab / field) D 50 Med is at or above 1, and t whenever it is below.

Study these solved cases before continuing.
COMPOUND	CLASS
CC[C@H]1OC(=O)[C@H](C)[C@@H](O[C@H]2C[C@@](C)(OC)[C@@H](O)[C@H](C)O2)[C@H](C)[C@@H](O[C@@H]2O[C@H](C)C[C@H](N(C)C)[C@H]2O)[C@](C)(O)C[C@@H](C)CN(C)[C@H](C)[C@@H](O)[C@]1(C)O [Azithromycin, reference compound]	f
NCCC(Oc1ccc(C(F)(F)F)cc1)c1ccccc1 (stereo not shown)	t
COc1ccc([C@@H]2Sc3ccccc3N(CCN(C)C)C(=O)[C@@H]2OC(C)=O)cc1 [Diltiazem, reference compound]	f

Query: Here's an entry: `CNCCN1C(=O)[C@H](OC(C)=O)[C@H](c2ccc(OC)cc2)Sc2ccccc21` . Is its WB conc. factor (lab / field) D 50 Med below 1?
Reply: f

Query: Item: `O=S(=O)(O)C(F)(F)C(F)(F)C(F)(F)C(F)(F)C(F)(F)C(F)(F)C(F)(F)C(F)(F)F`
Reply: t

Query: Another compound: CNCCC(Oc1ccc(C(F)(F)F)cc1)c1ccccc1 (stereo not shown) [Fluoxetine, reference compound]
Reply: t

Query: Same read-out for `O=C(O)C(F)(F)C(F)(F)C(F)(F)C(F)(F)C(F)(F)C(F)(F)C(F)(F)C(F)(F)C(F)(F)F` ?
Reply: f

###

APPLIED CONDITIONS: day 50 (after depuration), high dose, wet weight; < = reporting limit
Give Whole-body conc D 50 High for every item shown.
One number for each entry, in ng/g.

> print(dat)
                                   compound   uom  measured.value
1  O=S(=O)(O)C(F)(F)C(F)(F)C(F)(F)C(F)(F)C(F)(F)C(F)(F)C(F)(F)C(F)(F)F [PFOS]  ng/g             123
2  O=C(O)C(F)(F)C(F)(F)C(F)(F)C(F)(F)C(F)(F)C(F)(F)C(F)(F)C(F)(F)C(F)(F)F [PFDA]  ng/g            14.4
3  CNCCN1C(=O)[C@H](OC(C)=O)[C@H](c2ccc(OC)cc2)Sc2ccccc21 [Desmethyl-diltiazem]  ng/g             119

We now examine a further compound.
Query: Data request, read-out Whole-body conc D 50 High, for O=C(O)C(F)(F)C(F)(F)C(F)(F)C(F)(F)C(F)(F)F [PFHxA]
Reply: 0.82

###

APPLIED CONDITIONS: day 32, high dose; nominal ratio 10×
Please enter 1.0 where WB conc. factor (lab / field) D 32 High is greater than or equal to 4, and 0.0 where it is lower.

Query: Is the recorded value of WB conc. factor (lab / field) D 32 High equal to or greater than 4 for this molecule? CN[C@H]1CC[C@@H](c2ccc(Cl)c(Cl)c2)c2ccccc21 [Sertraline, reference compound]
Reply: 0.0

Query: Next molecule up: CN(C)C(=N)N=C(N)N [Metformin, reference compound]
Reply: 0.0

Query: Moving on to `O=C(O)C(F)(F)C(F)(F)C(F)(F)C(F)(F)C(F)(F)C(F)(F)C(F)(F)C(F)(F)C(F)(F)F`
Reply: 1.0

Query: Consider next the molecule CN(C)CCOC(c1ccccc1)c1ccccc1 [Diphen hydramine, reference compound] in the same way.
Reply: 1.0

Query: Then this molecule: CN(C)CCC=C1c2ccccc2CCc2ccccc21 [Amitriptyline, reference compound]
Reply: 0.0
